assay: compound effects on multiple myeloma cell viability – MM1S, calcein-AM fluorescence, 48 h, basal, profiling panel (AID 1165); conditions: higher = more signal; further: test concentration not given here
quantityName: z-score
Reply with the value as a number alone.

// sample "COc1cc2c(cc1OC)CN(C(=O)[C@@H]1[C@H]3C(=O)O[C@H](c4ccccc4)[C@H](c4ccccc4)N3[C@H](c3ccc(O)cc3)[C@@]13C(=O)Nc1ccc(C#CCNC(N)=O)cc13)CC2" , its z-score was 0.454

// sample "O=C1C[C@@](C(=O)O)(c2ccc([N+](=O)[O-])cc2)[C@@H](c2ccc(CO)cc2)N1CC12CC3CC(CC(C3)C1)C2" , its z-score was -1.49

// sample CC(C)(C)N1CC=CC23O[C@@H]4C=CCCOC(=O)C4[C@H]2C(=O)N(CCCO)[C@@H]3C1=O (some centres not stated) , its z-score was -0.685

// sample "COC(=O)c1c(CC[C@@H](CO)NC(=O)N[C@@H](C)Cn2cc(C3(O)CCCC3)nn2)oc(C(C)=O)c1C(=O)OC" , its z-score was -2.1

// sample "CN(C)C(=O)[C@]1(Cc2ccccc2N=[N+]=[N-])N=C(c2ccc(OCCCO)cc2)O[C@@H]1c1ccccc1CN=[N+]=[N-]" , its z-score was -2.39

// sample "CC(C)C[C@@H]1NC(=O)[C@@H]2C[C@H](C(=O)NCc3ccc(F)cc3)[C@H](c3ccc(O)cc3)N2C1=O" , its z-score was -0.199

// sample CC(C)C(CO)N1C(=O)[C@@H]2[C@H]3C(=O)OCC=C[C@H]3OC23C=CCN(Cn2nnc4ccccc42)C(=O)[C@@H]13 (some centres not stated) , its z-score was 0.48

* * *

molecular target: Follistatin (Homo sapiens); assay: FST protein binding to printed compounds – biochemical, small-molecule microarray, 635/667 nm fluorescence, primary screen (AID 1132); details: 635 nm fluorescence, higher = more signal
Field: composite z-score. Provide a value for each of the molecules that follow.
Reply with the value as a number alone.

Noted composite z-score for "COCC(=C=CC[C@@H](O)c1ccccc1OCCO)C[C@@H](O)c1ccccn1" , tested on Follistatin (Homo sapiens): 0.968

Noted composite z-score for "COC(=O)[C@@]1(Cc2ccccc2)[C@H]2c3cc(C(=O)N4CCCC4)n(Cc4ccccc4)c3C[C@H]2CN1C(=O)c1ccccc1" , tested on Follistatin (Homo sapiens): 0.841

Noted composite z-score for "CCCNC(=O)[C@@H]1c2ccccc2C(=O)N(CC23CC4CC(CC(C4)C2)C3)[C@H]1c1ccc(CO)cc1" , tested on Follistatin (Homo sapiens): 1.34

Noted composite z-score for "[N-]=[N+]=NCc1ccccc1[C@H]1OC(c2ccc(OCCCO)cc2)=N[C@@]1(Cc1ccccc1N=[N+]=[N-])C(=O)N1CCCCC1" , tested on Follistatin (Homo sapiens): 1.34

Noted composite z-score for "CN(C)CCCC[C@@H]1NC(=O)[C@H]2C[C@@H](C(=O)NCCCCCCNC(=O)CS)[C@@H](c3ccc(O)cc3)N2C1=O" , tested on Follistatin (Homo sapiens): 1.32

Noted composite z-score for "CC(=O)NCCCC[C@@H]1NC(=O)[C@H]2C[C@@H](C(=O)NCCCCCN)[C@@H](c3cccc(OCCO)c3)N2C1=O" , tested on Follistatin (Homo sapiens): 0.763

Noted composite z-score for "CO[C@H]1O[C@H](CO)[C@@H](OC(=O)Nc2ccc(C(F)(F)F)cc2)[C@H](OC(=O)Nc2ccccc2)[C@H]1OC(=O)Nc1ccccc1" , tested on Follistatin (Homo sapiens): 1.29

Noted composite z-score for CCCCCCCCCCC(O)C1C=CC2C(=O)NC(=O)C2N1Nc1ccccn1 (stereo not given) , tested on Follistatin (Homo sapiens): -0.008

Noted composite z-score for "CN(C)CCCN1C(=O)[C@@]2(Cc3ccccc31)c1ccccc1C(=O)N(Cc1ccccc1)[C@H]2c1ccc(CO)cc1" , tested on Follistatin (Homo sapiens): 0.375

Noted composite z-score for "COC(=O)[C@]1(Cc2ccccc2N=[N+]=[N-])N=C(c2ccc(OCCCO)cc2)O[C@@H]1c1ccccc1" , tested on Follistatin (Homo sapiens): 0.313

Noted composite z-score for "COCCOC(=O)N1C(=O)[C@@]2(c3cc(C#CCNC(N)=O)ccc31)[C@H](c1ccc(OCCO)cc1)N1[C@H](c3ccccc3)[C@H](c3ccccc3)OC(=O)[C@H]1[C@@H]2C(=O)N1CCN(c2ncccn2)CC1" , tested on Follistatin (Homo sapiens): 1.41

Noted composite z-score for "C[C@H]1ON(c2ccccc2)[C@@H](c2ccccc2)[C@@H]1C(=O)N1C(=O)OC[C@@H]1c1ccccc1" , tested on Follistatin (Homo sapiens): 1.12

Noted composite z-score for "CN(C)C(=O)[C@@]1(CCS(=O)(=O)c2ccccc2)N=C(c2ccc(OCCCO)cc2)O[C@H]1c1ccccc1CN=[N+]=[N-]" , tested on Follistatin (Homo sapiens): 0.871

Noted composite z-score for "C=C(/C(=C/C[C@@H](OC(=O)c1ccncc1)c1ccccc1OCCO)c1cnc2ccccc2c1)C(C)C" , tested on Follistatin (Homo sapiens): 1.45

Noted composite z-score for CN1C(=O)C2C=CC(C(O)C3CCCCC3)N(N(c3ccccc3)c3ccccc3)C2C1=O (stereo not given) , tested on Follistatin (Homo sapiens): -0.885
